Tested on: RARb homodimer (NR concentration 270 nM)
EXPERIMENT_NOTES: PBM binding z-score (relative to random genomic background probes); higher = stronger binding; sequences stand for … in GC…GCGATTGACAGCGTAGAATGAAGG
REPORTED_ENDPOINT: PBM binding z-score
Answers are plain numbers.

{"CHAIN_SEQUENCE": "TCGAGTATGTTAGTCGGGGCATTCAGCCAACATA", "PBM binding z-score": -0.183}
{"CHAIN_SEQUENCE": "ACTAGCAGGCCAAGTTTGGGTCACTAAAACAAAG", "PBM binding z-score": 2.17}
{"CHAIN_SEQUENCE": "TCATATAGGTAAATGCTAGGTGAAGGTCCGATCT", "PBM binding z-score": 0.576}
{"CHAIN_SEQUENCE": "ACTCGGAGGACACAGGTCAGAGCTACGCCAGTGA", "PBM binding z-score": 2.78}

Now examine the next entry.
Problem: Entry under review: TCTGCTAGGTCAACGATGGTGAGCTAATCTGCTA . Reported PBM binding z-score?
Result: 2.8

* * *

System: PPARg DBDmut:RXRa IVT, anti-PPARg (DBD mutation: PPARg1 K132A/R137A, NR concentration 270 nM, RXRa partner concentration 90 nM)
EXPERIMENT_NOTES: PBM binding z-score (relative to random genomic background probes); higher = stronger binding; sequences stand for … in GC…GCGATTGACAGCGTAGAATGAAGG
Please note: Y applies when PBM binding z-score is 0.6 or greater, and N applies otherwise.

Check out these entries, answers already filled in.
{"CHAIN_SEQUENCE": "TCTTGTAGATCAGCAGGTGAAGAAAGCTGGCCAA", "CLASSIFICATION": "N"}
{"CHAIN_SEQUENCE": "TCGTGTAGATCAAGCAGGTTAAGAAAGCCTGAGT", "CLASSIFICATION": "N"}
{"CHAIN_SEQUENCE": "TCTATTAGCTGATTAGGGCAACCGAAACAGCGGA", "CLASSIFICATION": "Y"}
{"CHAIN_SEQUENCE": "CCTTACGGGTCACTGACAGGTTTTAGCATTTGGA", "CLASSIFICATION": "N"}
{"CHAIN_SEQUENCE": "TTACCAAGGTGAGCTGAGGTCGTTGATCCAACTC", "CLASSIFICATION": "N"}
{"CHAIN_SEQUENCE": "GCAGACAGGGGAAACGCAGGTAACTCAGGGTGGC", "CLASSIFICATION": "N"}

Problem: Entry ATCTCTAGCTAAGACTCAGTTCAGTGAAGAACGC : is its PBM binding z-score no less than 0.6?
Result: N

Problem: hey, is PBM binding z-score for this one >= 0.6? GGAACGAGGGCATTCGAGTTGATAGCTTGGCGAT
Result: N

Problem: Does the sequence AATACAGGGACACTAGGCCAGAGTAGGTACGAAT have recorded PBM binding z-score that is 0.6 or more?
Result: N

* * *

Test system: RARb homodimer (NR concentration 270 nM)
EXPERIMENT_NOTES: PBM binding z-score (relative to random genomic background probes); higher = stronger binding; sequences stand for … in GC…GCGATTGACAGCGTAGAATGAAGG
REPORTED_ENDPOINT: PBM binding z-score
Answers are plain numbers.

For every listed record, write down its PBM binding z-score.
1. TCTGCTAAGTCAGTTGGTCAGCTAACGAGCTGCC
2. CGTCGAAGTTCAACTAAGGTAACGTAAAGCACGC
3. GCTCGGAGGACAGGGTCAGAGCTTTGTCCGTAGA
4. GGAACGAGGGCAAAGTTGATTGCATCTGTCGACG
5. ATATGTAGGTTATCGGATCATTCAGTTTGCGCAT
6. TAGCCTAGGGCATTGGGCCAGTATAGTACGCATC
7. TCTAGTTGGTCAAAGGACACACACTCGAAATGCG

Result:
1. -0.3
2. 2.89
3. 2.28
4. 1.13
5. 0.853
6. 0.542
7. 1.99
